Where these numbers come from: a protein production outcome set (Wang et al. 2014)

- METHOD SUMMARY: label from the status in PepcDB records
MEASUREMENT KIND: protein production

# annotated cases, reported protein production shown
MDWYVGTEWEDKNRGLAKKVIGLQFTEMDKPTIISTVEFSVNKKATNLGGRPSKYLVSDESATYPQKHSLEMGTSLTAVDCYLELLLQQFVPGETAACSITTKTGERIEFELKLEKIVKNTQVEKLSAAEIYEVALRLKESGVATFKTFPKFAFDYFVRAAKLLITYKPFDKLTKKTNGINGQAVEELFIQIQTNLAACLLQEKRYEHVIYHTQFVETEESPSEKSIYRRALAYYHLKEFAKAQATIERMPNYEEKREFSKLRDNIAVSWKDSKAHYKEVVQRMFS; failed
MGTRRRRGRKAIAGLPGYLLLLVLVLVWLFQELRPGPVPPAETGEAEVYFMPEEGPRAKARLLALMDGARESLEGAFYEFRDLEVAQGLLRAKARGVRVRLYGESDYREDFRRYLVAASLGQREEPPRVRFAELKERVKPLSLDCEEVVGIPICYDEREGFMHHKFLVVDGRAVWTGSTNMTWNAFARNNENSLLLPSPTLAQGYAREFEALFGGQKEGLGQPVAFALEGVEGVAYFSPRGGRLAREALLKRLSEAQREVLVAAFVLTDREVLEALLQARRRGAEVKVLLETRNLGTSREEALLEEGLEVRQDANPYTMHHKVMLLDGTYVVTGSYNFSVRAHEVNNENLLVLKSPSLAERYRKEVLRLWEAGSPL; failed
MDVFSEYLAGIADPFHRERTEEVLTWIKNKYPNLHTEIKWNQPMFTDHGTFIIGFSVSKKHLAVAPEKVTIAHVEDDIVKAGYDYTEQLIRIPWNGPVDYTLLEKMIEFNILDKADCSTFWRK; not failed
IQVDYEDVKLDGYFFSPSWIKGPKPTILALNGGDEWSIENYFWLGPAFISCGYNFMVYDQPGTGLSMYEKGKGRRADSEAFHSRAIDFLLTRPEVDPNKIIVHGESFAAYDSLRFASFDHRIAAVISDGGTHAFDWEAMLKWMPPSLAGHGMRILGAKSLDDFAENPRFAYNLEGVLHQIECPLLVMHGAEEILVQPNPLTQALKNYEQAGSKNKTFFPIEDRRIGGLEHCQVDNINVLHEVVLNWL; not failed
MKTAIVTDSASYLSAADVEKYHIHVVPITVIFGHQTYLENVEITSKEFYERMRTAPELPTTTQITLGQMQTTYDQLAKAGYDAVISIHLSSGITSFITNLESYLPNVTNIKVYPFDSLITAGGEAYMVLLAAKLVTEGYSPEQVIAQLKKIRETTGVYFVVDNLSHLVRTGRLSNASGLVGNLLRIKPVLTFQDGKIVAIQKERTMRRAYAAIKAKLAAEIAAVDYPLRVTIENGNNPKLQAEWTADLKASFPDLTIDEGEIGPVVGVHVGEGVMGLIWARDWEKWTI; failed

In the following, a different sequence is considered.
// query protein production value for entry MDWYLKVLKNYVGFRGRARRKEYWMFILVNIIFTFVLGLLDKMLGWQRAGGEGILTTIYGILVFLPWWAVQFRRLHDTDRSAWWALLFLIPFIGWLIIIVFNCQAGTARRKPLWTRSKTGTLKQICSPDV
failed

====

- METHOD SUMMARY: label from the status in PepcDB records
MEASUREMENT KIND: protein production

MKVTDVRLRKIQTDGRMKALVSITLDEAFVIHDLRVIEGNSGLFVAMPSKRTPDGEFRDIAHPINSDMRQEIQDAVMKVYDETD; not failed
MSVIIAANNLCLQYQQNEPVIKHANLRIKRKDFVFISGPSGSGKSTLLRSFYGDLKLFSGKLEVCNINMNNASKATILDLRKNIGVVFQDYKLIQDYTIEQNIKLPMVICGIKKEECHLQLEKLLGHIDLRHKANRYPKELSGGEQQRVAMARAMANCPELILADEPTGNLDDYSSDKIWSLLRGMNTQLNATIVVVTHKFPKNFSAYHRKFYIEDGEVYEYS; failed
MCDQTKHSKCCPAKGNQCCPPQQNQCCQSKGNQCCPPKQNQCCQPKGSQCCPPKHNHCCQPKPPCCIQARCCGLETKPEVSPLNMESEPNSPQTQDKGCQTQQQPHSPQNESRPSK; failed
SSGVIAFDEGFRVTTVNQGAQTILQADLRSVIGRPLETVDGMLEFAQVVRQAFAAHAAVGSERLHWQQQFEITPGLDETGGQPVTLLARGTHLRVD; failed
MSPMTIPSEMKALLLVGDGYTKTPSGSALEAMEPYLEQGRIAVPAPGPSQVLIKVNLASINPSDVAFIKGQYGQPRVKGRPAGFEGVGTIVAGGDEPYAKSLVGKRVAFATGLSNWGSWAEYAVAEAAACIPLLDTVRDEDGAAMIVNPLTAIAMFDIVKQEGEKAFVMTAGASQLCKLIIGLAKEEGFRPIVTVRRDEQIALLKDIGAAHVLNEKAPDFEATLREVMKAEQPRIFLDAVTGPLASAIFNAMPKRARWIIYGRLDPDATVIREPGQLIFQHKHIEGFWLSEWMRQFKERRGPAILEAQKRFSDGRWSTDVTAVVPLAEAIAWVPAELTKPNGKVFIRP; not failed

// query protein production value for entry MKRLYKAMFIVFILLVLMFASQQGLFEHVTNSNWVAHFIKAEGNYALMALLAVGALFTAVGGPRQVIAFVFGFALGGIYGGLFSTLAALLGCVLVFYTARLTIRSSLQRRFGHRLQKFEALIIHRTWLKVLMIRLLPVGSNLLTNLFAGATHISPGGFLFGSMLGYLPQMLIFSFAGAGIGLADHNQLWISIGLFIVSSLIGAYLYRSSLRKQVDELEH
failed

// query protein production value for entry MLIEIPNVFSKQEVSHLREQLDARRWIDGNQTSGAMATTRKRNQQLDKDDPVAVALGQQIMDRLLAHPQFVSAALPLQFYPPLFNRYQGGETFGYHIDNAIRSTPDGMIRTDLSATLFLSEPENYQGGELVIQDTYGQQSIKLSAGSLVLYPSSSLHQVTPVLSGERTAAFMWLQSMVRDEGQRRLLFQLDQSIQSLTAQTAAEQELFNLSGVYHNLLRRWSEL
not failed

// query protein production value for entry MNIQALLSEKVSQALIAAGAPADCEPQVRQSAKVQFGDYQANGVMAVAKKLGMAPRQLAEQVLSHLDLNGIANKVEIAGPGFINIFLDPAFLADNVNRALQSERLG
not failed

// query protein production value for entry MLTQTLDSPSGAKRLRVMSRHEREPVSQSKTDFSQQTRWMLAVRDNRDRLAFAALFDHFAPRLKGFVIRSGTPAHQAEEIVQDVMLTIWRKAAMFDPHRAQVSAWIYQIARNRQIDIARKENRPMPEELKEEPGTEPDASQILGLEQEAGQLKQALANLKPEQREIIEKAYLGELTHQEISAQTGLPLGTIKSRIRLGLERLRYELKDLKQ
failed

// query protein production value for entry MQRANREHLEIISLEEISMLVSSDFDLPEVLQHVTAKVATQLKVSVCNIYLREGDEVVLAATHGFDPAFIGKIRIKIGDGITGSVARDGQYISLSRASQDPRYRYFPELQEEKYNSMLSFPIGDKKEVYGVINLNTTSIRSFHEDEIYFVSIIANLILTAIKLRQQVASSRKAAEA
not failed

// query protein production value for entry MNHLPEKMRPYRDLLEKSAKEYVKLNVRKGKTGRYDSKIAGDPYFPKHETYPTDENGQPMKLLAQINFSHIPQLDGYPSSGILQFYISVHDDVYGLNFDDRCEQKNFRVIYFENIVENDDELVSDFSFIGTGECDFPILSEAAVEPVKSSEWVLPTDFQFEQYTGMETMEFFGQFGEDEEDIYNELAENGFGHKIGGYASFTQHDPREYAYKEHTIMLLQIDSDDDIDSMWGDVGIANFFITPEDLRKKDFSNVLYNWDCS
not failed

// query protein production value for entry MHLETNMAGHSIPHFQNDGGHSVIEIGVKEFMCTGASVPFDHPHIFIDMGDDNEKVCSYCSTLYRYNPSLKAEQTNPPGCVFHVKAALEHHHHHH
not failed

// query protein production value for entry MSLLPLPFTVHFDPTNQELLLSGKMRPESAAEITDALKLVQQSLEKYSGVVYVNVKRLTHINMTAFAALADILAASSRIRPERKIVIITSSVVAWSTSLFQTLAASQPSLSVEVYDSAFYPGQSFVEDETFIPILRTQTKMTWRHERELLPRHGLRSGLVIADICCGIGDFAALVQREFKPARLVALDHSVRSLEYARRVAADFDLQGIEYTYGDASQMLLRDNQFDFVTCRHSLQIFNRPEMLLRELYRICKPGGRVYITNEKNSHCLGEPHAESIKWTYEEVAKLFKHFDMDVEMGPKSRHLLADAGFDNIKVDSFMVTNLDGDPQDFADIIEAWENVYAGEMAVRRGDSSDFIRRFRQGFKDHVFAALHPKGYAGWPIWAASGRKPL
failed

// query protein production value for entry AALVRQHLDALPAASVPDLPAMARLLCTSVRTLKRRLQEEGTCYRQVLAGHRGARALELLGNPRLSLSQVAERLGFSDLSSFSQSFKRWFGVAPSVYRQERCG
failed
